- experimentNotes: in vivo
- conditionDescription: t1/2 in brain
quantityMeasured: half-life

Entry CSCCC(NC(=O)[C@H](N)Cc1c[nH]c2ccccc12)C(=O)N[C@@H](CC(=O)O)C(=O)N[C@@H](Cc1cccc(Br)c1)C(N)=O (stereo partly shown) — recorded half-life = ~8.7 h

###

- experimentNotes: in vivo
quantityMeasured: Tmax

The molecule identified as CSCCC(NC(=O)[C@H](N)Cc1c[nH]c2ccccc12)C(=O)N[C@@H](CC(=O)O)C(=O)N[C@@H](Cc1cccc(Br)c1)C(N)=O (stereo partly shown) [HT-267] registered its Tmax at ~1.98 min

###

- experimentNotes: in vivo
- conditionDescription: elimination half-life (t1/2) in plasma
For each of the compounds below, state its half-life.

>>> reportedmeasurement("CSCCC(NC(=O)[C@H](N)Cc1c[nH]c2ccccc12)C(=O)N[C@@H](CC(=O)O)C(=O)N[C@@H](Cc1cccc(Br)c1)C(N)=O (some centres unmarked)")
"~105 min"

# half-life of CSCC[C@H](NC(=O)C(N)Cc1c[nH]c2ccccc12)C(=O)NC(CC(=O)O)C(=O)N[C@@H](Cc1ccccc1)C(N)=O (some centres unmarked) [CCK-4, Cholecystokinin-4, reference compound] = ~13 min
